# Protocol Notes: Aqueous solubility of compound in PBS buffer at pH 7.2 measured after 24 hrs by HPLC analysis
# Type: physicochemical
Measured Property: solubility at 24 h (µg/mL)
Unit µg/mL implied. Number only.

Bench note: what solubility at 24 h did COc1ccn2c(C(C)=O)cc(C(=O)Nc3cc(C(C)O)cc(-c4cnn(C5CC5)c4)c3F)c2c1 (stereo unspecified) show?
20

---

# System Name: Bromodomain-containing protein 3 (Homo sapiens)
# Sequence (Q15059 2-726 limits assumed): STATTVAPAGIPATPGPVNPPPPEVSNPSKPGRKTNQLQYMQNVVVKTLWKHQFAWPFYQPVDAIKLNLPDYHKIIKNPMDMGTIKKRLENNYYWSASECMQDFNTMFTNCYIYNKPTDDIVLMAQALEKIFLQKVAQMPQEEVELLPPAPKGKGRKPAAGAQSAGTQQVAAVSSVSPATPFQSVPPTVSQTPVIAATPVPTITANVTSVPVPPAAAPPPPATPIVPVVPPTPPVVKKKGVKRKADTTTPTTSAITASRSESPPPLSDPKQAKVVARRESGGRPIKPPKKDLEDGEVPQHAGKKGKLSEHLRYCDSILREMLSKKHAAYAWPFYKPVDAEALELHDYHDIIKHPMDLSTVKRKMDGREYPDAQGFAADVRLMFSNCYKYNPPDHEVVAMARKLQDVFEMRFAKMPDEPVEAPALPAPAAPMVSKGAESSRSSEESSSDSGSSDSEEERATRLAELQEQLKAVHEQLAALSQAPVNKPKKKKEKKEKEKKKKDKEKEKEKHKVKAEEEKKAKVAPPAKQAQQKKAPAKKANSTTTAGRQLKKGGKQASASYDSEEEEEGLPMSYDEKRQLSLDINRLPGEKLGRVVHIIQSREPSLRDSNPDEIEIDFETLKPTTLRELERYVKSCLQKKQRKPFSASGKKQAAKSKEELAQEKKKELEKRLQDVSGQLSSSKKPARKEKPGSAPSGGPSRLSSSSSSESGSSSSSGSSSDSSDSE
# Condition Details: dose 200.0 µM, time 30.0 min
Short version: ΔTm at least 0 °C is condition met, less is condition not met.

Reported ΔTm reaches at least 0 °C for `CC(=O)c1cc(C(=O)Nc2cc(CO)cc(-c3cnn(C)c3)c2F)c2cc(N)ccn12` ?
condition met

Decide: ΔTm of `CC(=O)c1cc(C(=O)Nc2cc(CO)cc(-c3cnn(C4CC4)c3)c2F)c2cc(OC(=O)N(C)C)ccn12` >= 0 °C?
condition not met

Is ΔTm at least 0 °C? Consider `C[C@@H]1CC(=O)Nc2cccc(-c3ccc4c(c3)c(-c3cnn(C)c3)nn4C)c2N1`
condition met

Assess whether reported ΔTm for CO[C@H]1CC[C@H](n2c([C@@H]3CCCC(=O)N3c3ccc(F)c(F)c3)nc3cc(-c4c(C)noc4C)ccc32)CC1 [INOBRODIB] sits at 0 °C or higher.
condition met

Is it the case that COc1ccn2c(C(C)=O)cc(C(=O)Nc3cc(C(C)O)cc(-c4cnn(C5CC5)c4)c3F)c2c1 (stereo unspecified) has ΔTm reaching or exceeding 0 °C?
condition not met

---

# Protocol Notes: AUC (0 to infinity) in Sprague-Dawley rat at 2 mg/kg, iv administered as single dose measured upto 24 hrs
# Format: ADME, organism-based
# Set-up: dose 2 mg/kg, time < 24 hrs, route iv
# Condition Details: in vivo
Measured Property: AUC(0-inf) (ng·h/mL)
Use ng·h/mL as the unit, but write only the number.

Name the recorded AUC(0-inf) for `CC(=O)c1cc(C(=O)Nc2cc(CO)cc(-c3cnn(C)c3)c2F)c2cc(N)ccn12` .
420

---

# Protocol Notes: Hepatic clearance in rat liver microsomes at 1 uM incubated for 45 mins in presence of NADPH by LC-MS/MS analysis
# Assay type: ADME, Microsome
Measured Property: CLhep predicted at 1 µM (mL/min/kg)
The figure you give is taken to be in mL/min/kg; do not add the unit.

Look up CLhep predicted at 1 µM: COc1ccn2c(C(C)=O)cc(C(=O)Nc3cc(C(C)O)cc(-c4cnn(C5CC5)c4)c3F)c2c1 (stereo not given)
27.3

Quick one: CLhep predicted at 1 µM for `CC(=O)c1cc(C(=O)Nc2cc(CO)cc(-c3cnn(C4CC4)c3)c2F)c2cc(OC(=O)N(C)C)ccn12` ?
15.6

I'd like to know its CLhep predicted at 1 µM. The compound in question is Cc1ncc2n1-c1ccc(Cl)cc1C(c1ccccc1F)=NC2 [MIDAZOLAM]
53

Look up CLhep predicted at 1 µM for this compound: `COc1ccc2c(c1)c(C(=O)Nc1cc(C(=O)O)cc(-c3cnn(C)c3)c1F)cn2C(C)=O`
42.7

Consider the compound O=C(c1ccc(F)cc1)C1CCN(CCn2c(=O)[nH]c3ccccc3c2=O)CC1 [KETANSERIN] and give its measured CLhep predicted at 1 µM.
41

---

Please respond with reported IC50 for every item in the list.
# Test system: LNCaP C4-2B
# Protocol Notes: Antiproliferative activity against human LNCaP C4-2B cells assessed as inhibition of cell growth by Celltiter-Glo assay
# Type: functional, cell-based

# IC50 lookup, item `CC(C)C(=O)c1cc(C(=O)Nc2cc(CO)cc(-c3cnn(C)c3)c2F)c2cc(O)ccn12`
37 µM

For `CCc1ccn2c(C(C)=O)cc(C(=O)Nc3cc(CO)cc(-c4cnn(C)c4)c3F)c2c1` , what is its reported IC50?
50 µM

Quick one: IC50 of `COc1ccn2c(C(C)=O)cc(C(=O)Nc3cc(F)cc(-c4cnn(C)c4)c3F)c2c1` ?
> 50 µM

Record request: IC50 value, item `COC(=O)c1cc(NC(=O)c2cc(C(C)=O)n3ccc(OC)cc23)c(F)c(-c2cnn(C)c2)c1`
> 50 µM

---

# System Name: Bromodomain-containing protein 2 (Homo sapiens)
# Sequence (P25440 whole entry, looked up): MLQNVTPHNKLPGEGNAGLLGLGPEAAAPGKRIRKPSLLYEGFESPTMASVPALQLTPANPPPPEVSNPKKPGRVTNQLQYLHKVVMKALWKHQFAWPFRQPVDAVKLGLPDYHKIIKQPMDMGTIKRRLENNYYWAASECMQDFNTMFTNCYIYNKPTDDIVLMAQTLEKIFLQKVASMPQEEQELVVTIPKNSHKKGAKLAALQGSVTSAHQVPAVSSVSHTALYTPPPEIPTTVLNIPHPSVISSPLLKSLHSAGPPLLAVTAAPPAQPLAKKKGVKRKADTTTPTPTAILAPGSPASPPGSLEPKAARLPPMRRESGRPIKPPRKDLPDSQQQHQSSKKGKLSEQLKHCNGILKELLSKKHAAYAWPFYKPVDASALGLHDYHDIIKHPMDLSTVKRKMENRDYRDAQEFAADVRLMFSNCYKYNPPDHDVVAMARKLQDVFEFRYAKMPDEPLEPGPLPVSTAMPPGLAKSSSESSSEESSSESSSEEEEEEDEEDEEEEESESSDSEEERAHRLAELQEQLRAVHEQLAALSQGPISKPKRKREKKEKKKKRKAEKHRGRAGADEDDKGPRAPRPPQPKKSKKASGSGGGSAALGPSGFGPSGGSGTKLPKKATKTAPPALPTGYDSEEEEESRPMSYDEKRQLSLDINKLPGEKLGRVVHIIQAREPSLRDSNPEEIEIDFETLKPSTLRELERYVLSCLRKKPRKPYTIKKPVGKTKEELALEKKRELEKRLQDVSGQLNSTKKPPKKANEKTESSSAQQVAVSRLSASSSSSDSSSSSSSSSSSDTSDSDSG
# Condition Details: dose 200.0 µM, time 30.0 min
Measured Property: ΔTm (°C)
Give just the number in °C; leave the unit off.

May I ask what ΔTm has been recorded for `C[C@@H]1CC(=O)Nc2cccc(-c3ccc4c(c3)c(-c3cnn(C)c3)nn4C)c2N1` ?
1.3

May I ask what ΔTm has been recorded for `CC(=O)c1cc(C(=O)Nc2cc(CO)cc(-c3cnn(C)c3)c2F)c2cc(N)ccn12` ?
2

Reported ΔTm for `CO[C@H]1CC[C@H](n2c([C@@H]3CCCC(=O)N3c3ccc(F)c(F)c3)nc3cc(-c4c(C)noc4C)ccc32)CC1` : what is it?
3.8

So what's the measured ΔTm for this one? COc1ccn2c(C(C)=O)cc(C(=O)Nc3cc(C(C)O)cc(-c4cnn(C5CC5)c4)c3F)c2c1 (stereo unspecified)
-0.8

Look at this compound and give its reported ΔTm. `CC(=O)c1cc(C(=O)Nc2cc(CO)cc(-c3cnn(C4CC4)c3)c2F)c2cc(OC(=O)N(C)C)ccn12`
-0.3

Field request: ΔTm | item: CC(=O)c1cc(C(=O)Nc2cc(C(C)O)cc(-c3cnn(C4CC4)c3)c2F)c2cc(N)ccn12 (stereo unspecified)
-0.8

---

What IC50 was measured for each of the following?
# Test system: LNCaP C4-2B
# Protocol Notes: Antiproliferative activity against human LNCaP C4-2B cells assessed as inhibition of cell growth by Celltiter-Glo assay
# Type: functional, cell-based
Give the value in µM but do not write µM after it.

So what IC50 did CC(=O)c1cc(C(=O)Nc2cc(C(C)O)cc(-c3cnn(C4CC4)c3)c2F)c2cc(OC(=O)N(C)C)ccn12 (stereo not drawn) get with LNCaP C4-2B?
9.09

Form: Entry = `CC(=O)c1cc(C(=O)Nc2cc(CO)cc(-c3cnn(C)c3)c2F)c2cc(OC(=O)C(C)(C)C)ccn12` | System = LNCaP C4-2B | IC50 = ____
29.6

Please tell me: IC50 of `COc1ccn2c(C(C)=O)cc(C(=O)Nc3cc(CO)cc(-c4cnn(C)c4)c3F)c2c1` , system LNCaP C4-2B?
9.57

Write down the reported IC50 of `CCC(=O)c1cc(C(=O)Nc2cc(CO)cc(-c3cnn(C)c3)c2F)c2cc(O)ccn12` , test system: LNCaP C4-2B.
34.9

Given the entry `CC(=O)c1cc(C(=O)Nc2cc(CO)cc(-c3cnn(C)c3)c2F)c2cc(N)ccn12` , what IC50 was observed with LNCaP C4-2B?
5

Any idea what IC50 came out for `CO[C@H]1CC[C@H](n2c([C@@H]3CCCC(=O)N3c3ccc(F)c(F)c3)nc3cc(-c4c(C)noc4C)ccc32)CC1` on LNCaP C4-2B?
1.65

API: value(readout= IC50, system= LNCaP C4-2B, query= CC(=O)c1cc(C(=O)Nc2cc(C(C)O)cc(-c3cnn(C4CC4)c3)c2F)c2cc(N)ccn12 (stereo not drawn) )
2.97

---

Please go through the items and note down their half-life at 1 µM.
# Protocol Notes: Half life in rat liver microsomes at 1 uM incubated for 45 mins in presence of NADPH by LC-MS/MS analysis
# Format: ADME, Microsome
API: value field is a number in min; no unit string.

// query half-life at 1 µM value for entry `CC(=O)c1cc(C(=O)Nc2cc(CO)cc(-c3cnn(C4CC4)c3)c2F)c2cc(OC(=O)N(C)C)ccn12`
39.3

What measured half-life at 1 µM goes with `O=C(c1ccc(F)cc1)C1CCN(CCn2c(=O)[nH]c3ccccc3c2=O)CC1` ?
15.6

Look at this molecule and give its reported half-life at 1 µM. `COc1ccc2c(c1)c(C(=O)Nc1cc(C(=O)O)cc(-c3cnn(C)c3)c1F)cn2C(C)=O`
13.1

Could you tell me which half-life at 1 µM is on file for COc1ccn2c(C(C)=O)cc(C(=O)Nc3cc(C(C)O)cc(-c4cnn(C5CC5)c4)c3F)c2c1 (stereo unspecified) ?
45.9

Form field: reported half-life at 1 µM of `Cc1ncc2n1-c1ccc(Cl)cc1C(c1ccccc1F)=NC2`
1.85

---

# System Name: CREB-binding protein (Homo sapiens, UniProt Q92793)
# Sequence (Q92793 whole entry, the tested form may be a part): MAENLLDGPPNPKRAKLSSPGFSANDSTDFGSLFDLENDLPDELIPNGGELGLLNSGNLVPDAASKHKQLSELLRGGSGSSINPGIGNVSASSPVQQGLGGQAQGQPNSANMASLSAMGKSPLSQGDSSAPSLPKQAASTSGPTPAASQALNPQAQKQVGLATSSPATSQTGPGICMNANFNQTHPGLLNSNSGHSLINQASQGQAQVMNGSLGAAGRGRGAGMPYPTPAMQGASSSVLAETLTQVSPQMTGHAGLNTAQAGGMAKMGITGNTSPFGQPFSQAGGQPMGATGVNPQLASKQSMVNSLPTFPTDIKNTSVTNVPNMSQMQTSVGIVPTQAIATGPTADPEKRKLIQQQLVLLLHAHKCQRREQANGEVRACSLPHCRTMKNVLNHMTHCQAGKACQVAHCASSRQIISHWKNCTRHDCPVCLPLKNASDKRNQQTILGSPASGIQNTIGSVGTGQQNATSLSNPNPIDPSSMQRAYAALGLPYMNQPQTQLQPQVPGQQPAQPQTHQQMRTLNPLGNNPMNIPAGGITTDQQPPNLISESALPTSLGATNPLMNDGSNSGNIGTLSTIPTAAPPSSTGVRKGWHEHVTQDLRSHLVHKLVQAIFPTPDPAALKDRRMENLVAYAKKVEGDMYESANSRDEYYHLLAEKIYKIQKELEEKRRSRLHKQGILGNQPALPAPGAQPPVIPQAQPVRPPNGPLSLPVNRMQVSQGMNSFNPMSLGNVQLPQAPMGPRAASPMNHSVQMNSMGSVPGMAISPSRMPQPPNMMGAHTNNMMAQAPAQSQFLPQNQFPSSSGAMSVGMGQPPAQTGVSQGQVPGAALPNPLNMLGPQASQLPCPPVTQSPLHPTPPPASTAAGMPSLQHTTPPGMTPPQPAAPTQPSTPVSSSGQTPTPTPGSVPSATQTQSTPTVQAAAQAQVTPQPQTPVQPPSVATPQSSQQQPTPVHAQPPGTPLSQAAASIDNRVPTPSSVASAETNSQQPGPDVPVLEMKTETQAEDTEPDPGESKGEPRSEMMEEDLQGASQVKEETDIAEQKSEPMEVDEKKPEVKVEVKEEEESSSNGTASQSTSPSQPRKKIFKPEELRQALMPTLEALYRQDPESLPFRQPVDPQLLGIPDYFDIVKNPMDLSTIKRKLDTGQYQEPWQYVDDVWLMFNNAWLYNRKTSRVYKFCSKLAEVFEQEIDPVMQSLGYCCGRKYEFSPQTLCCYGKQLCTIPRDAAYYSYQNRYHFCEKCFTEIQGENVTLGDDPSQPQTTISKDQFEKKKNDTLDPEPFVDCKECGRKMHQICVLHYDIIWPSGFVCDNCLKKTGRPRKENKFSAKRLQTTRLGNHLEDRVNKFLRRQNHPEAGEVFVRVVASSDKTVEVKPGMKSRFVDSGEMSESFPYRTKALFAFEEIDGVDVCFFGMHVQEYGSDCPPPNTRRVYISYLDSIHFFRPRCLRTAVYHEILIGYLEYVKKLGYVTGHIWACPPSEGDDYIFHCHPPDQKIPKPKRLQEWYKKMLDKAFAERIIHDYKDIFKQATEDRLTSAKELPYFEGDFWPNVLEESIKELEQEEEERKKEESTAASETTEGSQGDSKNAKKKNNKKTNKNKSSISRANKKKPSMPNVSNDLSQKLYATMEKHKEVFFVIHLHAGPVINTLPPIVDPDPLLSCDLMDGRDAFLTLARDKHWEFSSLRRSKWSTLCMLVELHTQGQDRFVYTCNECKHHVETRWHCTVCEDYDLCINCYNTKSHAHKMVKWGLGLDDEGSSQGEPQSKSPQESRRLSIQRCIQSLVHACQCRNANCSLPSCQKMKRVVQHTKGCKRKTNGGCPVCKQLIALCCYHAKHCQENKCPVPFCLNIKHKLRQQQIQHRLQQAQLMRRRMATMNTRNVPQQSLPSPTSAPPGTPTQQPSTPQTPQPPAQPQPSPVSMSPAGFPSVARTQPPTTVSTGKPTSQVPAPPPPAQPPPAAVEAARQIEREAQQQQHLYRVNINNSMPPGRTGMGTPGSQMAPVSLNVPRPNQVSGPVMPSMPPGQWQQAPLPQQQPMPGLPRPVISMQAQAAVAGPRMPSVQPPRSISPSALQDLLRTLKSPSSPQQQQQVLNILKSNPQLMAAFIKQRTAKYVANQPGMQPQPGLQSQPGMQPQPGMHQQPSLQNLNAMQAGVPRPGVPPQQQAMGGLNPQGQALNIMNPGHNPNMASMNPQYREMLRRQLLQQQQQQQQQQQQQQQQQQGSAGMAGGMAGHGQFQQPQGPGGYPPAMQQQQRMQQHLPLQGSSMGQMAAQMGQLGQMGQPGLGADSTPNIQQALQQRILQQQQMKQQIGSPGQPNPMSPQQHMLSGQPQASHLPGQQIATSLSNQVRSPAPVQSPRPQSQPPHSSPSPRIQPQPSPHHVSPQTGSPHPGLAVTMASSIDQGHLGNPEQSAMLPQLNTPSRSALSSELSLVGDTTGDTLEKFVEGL
# Protocol Notes: Binding affinity to His6-tagged human CBP bromodomain (1081 to 1197 residues) expressed in Escherichia coli BL21 (DE3) assessed as dissociation constant by ITC analysis
pKd: −log10 of the molar value.
Decision: pKd >= 7 yields true, all other cases yield false.

Determine whether this molecule has pKd no lower than 7: `COc1ccc2c(c1)c(C(=O)Nc1cc(C(=O)O)cc(-c3cnn(C)c3)c1F)cn2C(C)=O`
false

Dear colleague, could you confirm whether `CC(=O)c1cc(C(=O)Nc2cc(CO)cc(-c3cnn(C)c3)c2F)c2cc(O)ccn12` has pKd at or above 7?
true

Is reported pKd greater than or equal to 7 here: `COc1ccn2c(C(C)=O)cc(C(=O)Nc3cc(C(=O)O)cc(-c4cnn(C)c4)c3F)c2c1`
true

hey, is pKd for this one >= 7? `CC(=O)c1cc(C(=O)Nc2cc(CO)cc(-c3cnn(C)c3)c2F)c2cc(N)ccn12`
true

State whether the measured pKd reaches 7, counting equality as reaching it, for COc1ccn2c(C(C)=O)cc(C(=O)Nc3cc(C(C)O)cc(-c4cnn(C5CC5)c4)c3F)c2c1 (stereo unspecified)
true
